target: human TRPM8 (Homo sapiens); construct: expressed in transfected cells; host or cells: CHO (p658 mammalian expression vector); assay: In vitro human TRPM8 automated patch-clamp assay (SyncroPatch 384PE, CHO cells); format: cell-based; settings: CHO cells expressing human TRPM8, 28° C.
Binary call on EC50 with cut-off 2 µM: strictly below means true (1), and equality or higher means false (0).

Answered examples (5):
CC(C)[C@@H]1CC[C@@H](C)C[C@@]1(O)C(=O)NCC(=O)c1ccc(O)cc1: true (1)
CC(C)[C@@H]1CC[C@@H](C)C[C@@]1(O)C(=O)NCCc1ccccc1C(=O)OCCO: false (0)
CC(C)[C@@H]1CC[C@@H](C)C[C@@]1(O)C(=O)NCC(=O)c1cccs1: false (0)
CC(C)[C@@H]1CC[C@@H](C)C[C@@]1(O)C(=O)NCCc1ccccc1OC[C@@H](O)CO: false (0)
COC(=O)[C@H](N)COc1cccc(CCNC(=O)[C@]2(O)C[C@H](C)CC[C@H]2C(C)C)c1: true (1)

Hello, is EC50 of the following compound strictly smaller than 2 µM? COC(=O)COc1ccccc1C(O)CNC(=O)[C@]1(O)C[C@H](C)CC[C@H]1C(C)C (stereo partly shown)
true (1)

Hello, is EC50 of the following compound strictly smaller than 2 µM? CC(C)[C@@H]1CC[C@@H](C)C[C@@]1(O)C(=O)NCC(=O)c1ccc(F)c(F)c1
true (1)

Hello, is EC50 of the following compound strictly smaller than 2 µM? CC(C)[C@@H]1CC[C@@H](C)C[C@@]1(O)C(=O)NC[C@@H](O)c1cccc(O)c1
true (1)

Hello, is EC50 of the following compound strictly smaller than 2 µM? CC(C)[C@@H]1CC[C@@H](C)C[C@@]1(O)C(=O)NCC(CO)c1ccccc1 (single isomer, unassigned) [Example 90]
false (0)

Hello, is EC50 of the following compound strictly smaller than 2 µM? CC(C)[C@@H]1CC[C@@H](C)C[C@@]1(O)C(=O)NCC(O)c1ccc(F)cc1 (stereo partly shown)
true (1)

Hello, is EC50 of the following compound strictly smaller than 2 µM? [2H]C(O)(CNC(=O)[C@]1(O)C[C@H](C)CC[C@H]1C(C)C)c1ccccc1 (stereo partly shown)
true (1)

Hello, is EC50 of the following compound strictly smaller than 2 µM? CC(C)[C@@H]1CC[C@@H](C)C[C@@]1(O)C(=O)NCCc1cccc(OCC(O)CO)c1 (stereo partly shown)
false (0)

###

target: pig TRPM8 (Sus scrofa, UniProt F1SM15); construct: expressed in transfected cells; host or cells: CHO (pcDNA5/FRT/TO vector; hygromycin B and blasticidin selection); test: In vitro pig TRPM8 fluorescence calcium flux assay (recombinant CHO cells, Fluo4-AM, FDSS6000); type: cell-based; settings: recombinant CHO cells expressing pig TRPM8; menthol-related EC50, normalized to 100 μM menthol
Sequence (F1SM15 1-1104): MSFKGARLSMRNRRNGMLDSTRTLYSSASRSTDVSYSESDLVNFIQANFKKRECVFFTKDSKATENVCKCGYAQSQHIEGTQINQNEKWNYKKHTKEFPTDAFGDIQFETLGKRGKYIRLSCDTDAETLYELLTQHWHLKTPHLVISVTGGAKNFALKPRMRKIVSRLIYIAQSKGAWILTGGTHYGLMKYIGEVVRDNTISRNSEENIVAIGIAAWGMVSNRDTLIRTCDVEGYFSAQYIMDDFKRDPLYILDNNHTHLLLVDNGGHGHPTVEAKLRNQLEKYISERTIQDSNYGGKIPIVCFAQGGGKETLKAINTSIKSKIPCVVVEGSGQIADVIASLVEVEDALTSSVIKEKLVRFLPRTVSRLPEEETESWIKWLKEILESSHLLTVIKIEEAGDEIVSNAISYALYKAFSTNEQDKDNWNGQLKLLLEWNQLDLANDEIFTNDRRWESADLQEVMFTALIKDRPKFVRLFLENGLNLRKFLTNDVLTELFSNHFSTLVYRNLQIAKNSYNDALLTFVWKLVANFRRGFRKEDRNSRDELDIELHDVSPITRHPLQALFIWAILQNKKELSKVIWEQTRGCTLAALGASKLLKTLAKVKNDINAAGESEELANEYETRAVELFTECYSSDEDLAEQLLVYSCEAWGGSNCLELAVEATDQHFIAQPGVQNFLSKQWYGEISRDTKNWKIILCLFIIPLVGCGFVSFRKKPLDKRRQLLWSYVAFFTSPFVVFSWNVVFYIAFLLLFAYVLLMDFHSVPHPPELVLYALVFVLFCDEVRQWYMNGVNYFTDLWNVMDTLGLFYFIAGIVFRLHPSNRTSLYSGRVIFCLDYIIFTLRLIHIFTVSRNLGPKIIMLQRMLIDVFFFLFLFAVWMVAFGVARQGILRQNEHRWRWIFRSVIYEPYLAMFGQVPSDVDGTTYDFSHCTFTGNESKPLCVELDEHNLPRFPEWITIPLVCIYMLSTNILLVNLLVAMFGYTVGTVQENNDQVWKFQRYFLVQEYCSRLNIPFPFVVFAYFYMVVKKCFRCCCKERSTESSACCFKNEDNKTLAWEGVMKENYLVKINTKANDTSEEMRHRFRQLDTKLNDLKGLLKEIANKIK
pEC50: −log10 of the molar value. Structures can show the parent of a compound that is named as a salt.
Class field: derived from pEC50; ranges 0 (below 7), 1 (7 to below 8), 2 (8 or more)

Answered examples (6):
CC(C)[C@@H]1CC[C@@H](C)C[C@@]1(O)C(=O)NCC(CO)c1ccccc1 (single isomer, unassigned) [Example 89]: 1
CC(C)[C@@H]1CC[C@@H](C)C[C@@]1(O)C(=O)NCCc1ccccc1OCC(N)=O: 1
Cc1oc(=O)oc1COC(=O)c1cccc(CCNC(=O)[C@]2(O)C[C@H](C)CC[C@H]2C(C)C)c1: 0
CC(C)[C@@H]1CC[C@@H](C)C[C@@]1(O)C(=O)NCCc1ccccc1C(=O)OCCO: 1
CC(C)[C@@H]1CC[C@@H](C)C[C@@]1(O)C(=O)NCC(=O)c1cc(F)ccc1F: 2
CC(C)[C@@H]1CC[C@@H](C)C[C@@]1(O)C(=O)NCCc1ccccc1O: 2

Place this compound in its band: CC(C)[C@@H]1CC[C@@H](C)C[C@@]1(O)C(=O)NCCc1ccccc1C(=O)OCCN [Example 13, hydrochloride]
2

Place this compound in its band: CC(C)[C@@H]1CC[C@@H](C)C[C@@]1(O)C(=O)NCCc1c[nH]c2ccc(O)cc12
1

Place this compound in its band: COC(=O)c1cccc(CCNC(=O)[C@]2(O)C[C@H](C)CC[C@H]2C(C)C)c1
1

###

target: pig TRPM8 (Sus scrofa); construct: expressed in transfected cells; host or cells: CHO (pcDNA5/FRT/TO vector; hygromycin B and blasticidin selection); assay: In vitro pig TRPM8 fluorescence calcium flux assay (recombinant CHO cells, Fluo4-AM, FDSS6000); format: cell-based; conditions: recombinant CHO cells expressing pig TRPM8; menthol-related EC50, normalized to 100 μM menthol
pEC50: −log10 of the molar value.
Kindly return true (1) if reported pEC50 is no lower than 8; return false (0) if it is lower.

Answered examples (4):
CC(C)[C@@H]1CC[C@@H](C)C[C@@]1(O)C(=O)NCC(=O)c1cccs1: true (1)
COC[C@H](NC(=O)[C@]1(O)C[C@H](C)CC[C@H]1C(C)C)C(O)c1ccccc1 (stereo in doubt): false (0)
Cc1cccc(C(O)CNC(=O)[C@]2(O)C[C@H](C)CC[C@H]2C(C)C)c1 (stereo partly shown): true (1)
CC(C)[C@@H]1CC[C@@H](C)C[C@@]1(O)C(=O)NCC1OCCc2ccccc21 (single isomer, unassigned) [Example 98]: false (0)

Confirm if pEC50 reported for the compound CC(C)[C@@H]1CC[C@@H](C)C[C@@]1(O)C(=O)NCCc1ccc(O)cc1O is 8 or above.
false (0)

###

target: human TRPM8 (Homo sapiens, UniProt Q7Z2W7); construct: expressed in transfected cells; host or cells: CHO (p658 mammalian expression vector); assay: In vitro human TRPM8 fluorescence calcium flux assay (recombinant CHO cells, Fluo4-AM, FDSS6000); assay type: cell-based; conditions: recombinant CHO cells expressing human TRPM8; menthol-related EC50, normalized to 100 μM menthol
Sequence (Q7Z2W7 whole entry): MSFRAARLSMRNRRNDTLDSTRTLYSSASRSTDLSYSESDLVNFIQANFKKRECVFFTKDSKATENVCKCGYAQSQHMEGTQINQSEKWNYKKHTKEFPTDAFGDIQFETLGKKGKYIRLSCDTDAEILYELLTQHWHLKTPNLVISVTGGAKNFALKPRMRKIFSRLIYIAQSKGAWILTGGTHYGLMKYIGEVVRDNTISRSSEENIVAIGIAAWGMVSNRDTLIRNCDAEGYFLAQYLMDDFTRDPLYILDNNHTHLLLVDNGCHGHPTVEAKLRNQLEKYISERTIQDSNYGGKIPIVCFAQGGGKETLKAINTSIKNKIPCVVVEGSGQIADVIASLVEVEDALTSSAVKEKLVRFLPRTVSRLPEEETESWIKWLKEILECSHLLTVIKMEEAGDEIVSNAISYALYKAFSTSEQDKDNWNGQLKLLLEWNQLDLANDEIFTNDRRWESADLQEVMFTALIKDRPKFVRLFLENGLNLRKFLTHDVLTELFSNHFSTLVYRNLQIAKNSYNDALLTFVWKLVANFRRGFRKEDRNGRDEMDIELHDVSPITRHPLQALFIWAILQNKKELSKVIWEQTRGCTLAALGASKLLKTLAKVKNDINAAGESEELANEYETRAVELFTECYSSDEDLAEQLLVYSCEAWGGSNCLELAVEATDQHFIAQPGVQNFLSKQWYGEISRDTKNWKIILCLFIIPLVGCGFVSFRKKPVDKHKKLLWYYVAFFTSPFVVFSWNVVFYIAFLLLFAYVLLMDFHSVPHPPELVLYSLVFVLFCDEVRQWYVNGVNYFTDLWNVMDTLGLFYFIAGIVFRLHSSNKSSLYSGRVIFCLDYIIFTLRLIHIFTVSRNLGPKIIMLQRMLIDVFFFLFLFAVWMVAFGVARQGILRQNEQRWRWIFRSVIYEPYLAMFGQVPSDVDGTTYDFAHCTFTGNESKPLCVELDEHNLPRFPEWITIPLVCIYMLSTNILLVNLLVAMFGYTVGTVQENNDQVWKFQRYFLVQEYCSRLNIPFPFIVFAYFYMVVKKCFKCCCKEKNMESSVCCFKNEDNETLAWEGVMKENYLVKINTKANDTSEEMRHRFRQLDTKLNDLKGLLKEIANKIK
Assignment: determine reported pEC50 for the given compounds.
Give bare numbers, as −log10 of the molar value.

CC(C)[C@@H]1CC[C@@H](C)C[C@@]1(O)C(=O)NCC(=O)c1ccc(Cl)cc1 [Example 134]: 8.47
Cc1cccc(C(F)(F)CNC(=O)[C@]2(O)C[C@H](C)CC[C@H]2C(C)C)c1 [Example 187]: 7.47

Please state, for each entry, its recorded pEC50.
1. CC(C)[C@@H]1CC[C@@H](C)C[C@@]1(O)C(=O)NCCc1ccc(O)c([N+](=O)[O-])c1 [Example 166]
2. CC(C)[C@@H]1CC[C@@H](C)C[C@@]1(O)C(=O)NCC(=O)c1cc(F)ccc1F [Example 139]
3. CC(C)[C@@H]1CC[C@@H](C)C[C@@]1(O)C(=O)N[C@@H](C)CCc1ccc(O)cc1 [Example 168]
4. CC(C)[C@@H]1CC[C@@H](C)C[C@@]1(O)C(=O)NCC(=O)c1ccc(O)cc1 [Example 143]

1: 7.78; 2: 8.28; 3: 6.48; 4: 8.25

Please state, for each entry, its recorded pEC50.
1. CC(C)[C@@H]1CC[C@@H](C)C[C@@]1(O)C(=O)NC[C@@H](O)c1ccccc1 [Example 1]
2. [2H]C(O)(CNC(=O)[C@]1(O)C[C@H](C)CC[C@H]1C(C)C)c1ccccc1 (some centres unmarked) [Example 72]

1. 8.77
2. 8.52

###

molecular target: pig TRPM8 (Sus scrofa, UniProt F1SM15); construct: expressed in transfected cells; host or cells: CHO (pcDNA5/FRT/TO vector; hygromycin B and blasticidin selection); test: In vitro pig TRPM8 automated patch-clamp assay (SyncroPatch 384PE, CHO cells); assay type: cell-based; conditions: CHO cells expressing pig TRPM8, 28° C.
Assignment: determine reported pEC50 for the given compounds.
Numbers only, as −log10 of the molar value.

CC(C)[C@@H]1CC[C@@H](C)C[C@@]1(O)C(=O)NCCc1ccccc1OCCO: 5.21
CC(C)[C@@H]1CC[C@@H](C)C[C@@]1(O)C(=O)NCC(=O)c1ccc(O)cc1: 6.01
CC(C)[C@@H]1CC[C@@H](C)C[C@@]1(O)C(=O)NCCc1cccnc1: 5.17
CC(C)[C@@H]1CC[C@@H](C)C[C@@]1(O)C(=O)NCC(F)(F)c1ccccc1: 6.33
CC(C)[C@@H]1CC[C@@H](C)C[C@@]1(O)C(=O)NCC1(O)CCc2ccccc21 (stereo partly shown): 5.97

Please state, for each entry, its recorded pEC50.
1. CC(C)[C@@H]1CC[C@@H](C)C[C@@]1(O)C(=O)N[C@@H]1COc2ccccc2C1
2. CC(C)[C@@H]1CC[C@@H](C)C[C@@]1(O)C(=O)NCC(=O)Oc1ccccc1

5.82
5.47

###

target: pig TRPM8 (Sus scrofa); construct: expressed in transfected cells; host or cells: CHO (pcDNA5/FRT/TO vector; hygromycin B and blasticidin selection); assay: In vitro pig TRPM8 fluorescence calcium flux assay (recombinant CHO cells, Fluo4-AM, FDSS6000); assay type: cell-based; conditions: recombinant CHO cells expressing pig TRPM8; menthol-related EC50, normalized to 100 μM menthol
pEC50: −log10 of the molar value.
Kindly return Y if reported pEC50 is no lower than 8; return N if it is lower.

Answered examples (5):
COC(=O)Cc1ccccc1CCNC(=O)[C@]1(O)C[C@H](C)CC[C@H]1C(C)C: N
CC(C)[C@@H]1CC[C@@H](C)C[C@@]1(O)C(=O)NCC(=O)Nc1ccccc1: Y
CC(C)[C@@H]1CC[C@@H](C)C[C@@]1(O)C(=O)NCCc1ccccc1CCN: Y
CC(C)[C@@H]1CC[C@@H](C)C[C@@]1(O)C(=O)NCC1COc2ccccc21 (stereo partly shown): Y
CC(C)[C@@H]1CC[C@@H](C)C[C@@]1(O)C(=O)NCCc1ccc(O)cc1: Y

Confirm if pEC50 reported for the compound CC(=O)NCCOc1ccccc1CCNC(=O)[C@]1(O)C[C@H](C)CC[C@H]1C(C)C is 8 or above.
N

Confirm if pEC50 reported for the compound COC(=O)CCc1ccccc1CCNC(=O)[C@]1(O)C[C@H](C)CC[C@H]1C(C)C is 8 or above.
N

Confirm if pEC50 reported for the compound CC(C)[C@@H]1CC[C@@H](C)C[C@@]1(O)C(=O)NCCc1ccc(S(N)(=O)=O)cc1 is 8 or above.
N

Confirm if pEC50 reported for the compound COC(=O)c1cccc(C(O)CNC(=O)[C@]2(O)C[C@H](C)CC[C@H]2C(C)C)c1 (stereo partly shown) is 8 or above.
N

Confirm if pEC50 reported for the compound CC(C)[C@@H]1CC[C@@H](C)C[C@@]1(O)C(=O)NCC(=O)c1ccc(O)cc1O is 8 or above.
N

Confirm if pEC50 reported for the compound [2H]C(O)(CNC(=O)[C@]1(O)C[C@H](C)CC[C@H]1C(C)C)c1ccccc1 (single isomer, unassigned) [Example 91] is 8 or above.
Y
